target: AR (Homo sapiens, UniProt P10275); construct: endogenous in cells; host or cells: VCaP cells; experiment: VCAP AR Degradation Assay; assay type: cell-based; settings: class symbols *, **
Sequence (P10275 whole entry): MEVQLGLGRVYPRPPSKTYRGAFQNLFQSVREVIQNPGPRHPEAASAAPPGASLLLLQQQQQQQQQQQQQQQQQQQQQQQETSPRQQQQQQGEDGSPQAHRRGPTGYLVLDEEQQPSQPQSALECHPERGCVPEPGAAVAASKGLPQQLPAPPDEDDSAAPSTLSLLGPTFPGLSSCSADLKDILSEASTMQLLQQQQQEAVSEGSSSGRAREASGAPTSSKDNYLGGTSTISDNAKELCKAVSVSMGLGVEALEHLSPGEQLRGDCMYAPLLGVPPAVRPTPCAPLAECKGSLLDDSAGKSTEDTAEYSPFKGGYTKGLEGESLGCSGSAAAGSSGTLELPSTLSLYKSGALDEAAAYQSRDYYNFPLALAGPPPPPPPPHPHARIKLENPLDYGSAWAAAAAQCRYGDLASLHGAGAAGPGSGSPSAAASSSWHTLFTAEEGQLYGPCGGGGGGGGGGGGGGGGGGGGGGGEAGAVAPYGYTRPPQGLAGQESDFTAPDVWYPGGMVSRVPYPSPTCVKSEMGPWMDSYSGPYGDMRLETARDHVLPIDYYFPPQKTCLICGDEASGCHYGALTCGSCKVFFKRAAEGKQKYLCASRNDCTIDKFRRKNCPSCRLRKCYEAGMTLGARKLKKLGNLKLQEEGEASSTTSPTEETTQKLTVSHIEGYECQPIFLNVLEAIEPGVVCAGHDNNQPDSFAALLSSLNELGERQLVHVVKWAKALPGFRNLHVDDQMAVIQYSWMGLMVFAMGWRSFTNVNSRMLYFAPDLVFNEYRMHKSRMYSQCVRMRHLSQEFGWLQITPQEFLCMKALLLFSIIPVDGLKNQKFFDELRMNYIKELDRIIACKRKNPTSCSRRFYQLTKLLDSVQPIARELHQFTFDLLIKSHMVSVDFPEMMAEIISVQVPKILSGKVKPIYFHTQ
Where a name gives a salt, the structure may show the parent alone.
recorded endpoint: Y (AR degradation efficiency, % of DMSO control)

- compound: "CC(C)Cc1cc(N2C(=S)N(c3ccc(C#N)c(C(F)(F)F)c3)C(=O)C2(C)C)ccc1OCCN1CCN(CC(=O)Nc2cccc(NC3CCC(=O)NC3=O)c2)CC1 (stereo not shown)"
  observed measurement: "* (0<Y<=25%)"
- compound: "CCc1cc(N2C(=S)N(c3ccc(C#N)c(C(F)(F)F)c3)C(=O)C2(C)C)ccc1OCCN1CCN(CC(=O)Nc2cccc(N[C@H]3CCC(=O)NC3=O)c2)CC1 [Example 27, hydrochloride]"
  observed measurement: "* (0<Y<=25%)"
- compound: "CCc1cc(N2C(=S)N(c3ccc(C#N)c(C(F)(F)F)c3)C(=O)C2(C)C)ccc1OCCN1C[C@@H](C)N(CC(=O)Nc2cc(C#N)cc(NC3CCC(=O)NC3=O)c2)C[C@H]1C (stereo partly shown)"
  observed measurement: "* (0<Y<=25%)"
- compound: "CCc1cc(N2C(=S)N(c3ccc(C#N)c(C(F)(F)F)c3)C(=O)C23CCC3)ccc1OCCN1CCN(CC(=O)Nc2cccc(NC3CCC(=O)NC3=O)c2)CC1 (stereo not shown)"
  observed measurement: "* (0<Y<=25%)"
- compound: "N#Cc1ccc(N2C(=O)C3(CCC3)N(c3ccc(OCCN4CCN(CC(=O)Nc5cccc(NC6CCC(=O)NC6=O)c5)CC4)c(F)c3)C2=S)cc1C(F)(F)F (stereo not shown) [Example 8, hydrochloride]"
  observed measurement: "** (25%<Y<=35%)"
- compound: "CC(C)c1cc(N2C(=S)N(c3ccc(C#N)c(Cl)c3)C(=O)C2(C)C)ccc1OCCN1C[C@@H](C)N(CC(=O)Nc2cccc(NC3CCC(=O)NC3=O)c2)C[C@H]1C (stereo partly shown)"
  observed measurement: "** (25%<Y<=35%)"
- compound: "CCc1cc(N2C(=S)N(c3ccc(C#N)c(C(F)(F)F)c3)C(=O)C2(C)C)ccc1OCCN1CCN([C@@H](C)C(=O)Nc2cccc(NC3CCC(=O)NC3=O)c2)[C@@H](C)C1 (stereo partly shown)"
  observed measurement: "* (0<Y<=25%)"
- compound: "CC1(C)C(=O)N(c2ccc(C#N)c(C(F)(F)F)c2)C(=S)N1c1ccc(OCCN2CCN(CC(=O)Nc3cc(F)cc(NC4CCC(=O)NC4=O)c3)CC2)c(F)c1 (stereo not shown) [Example 19, formate]"
  observed measurement: "* (0<Y<=25%)"
- compound: "CCc1cc(N2C(=S)N(c3ccc(C#N)c(C(F)(F)F)c3)C(=O)C2(C)C)ccc1OCCN1CCN(CC(=O)Nc2cccc(NC3CCC(=O)NC3=O)c2)C[C@H]1CO (stereo partly shown)"
  observed measurement: "** (25%<Y<=35%)"
- compound: "CCc1cc(N2C(=S)N(c3ccc(C#N)c(C(F)(F)F)c3)C(=O)C2(C)C)cnc1OCCN1CCN(CC(=O)Nc2cccc(NC3CCC(=O)NC3=O)c2)[C@H](C)C1 (stereo partly shown)"
  observed measurement: "* (0<Y<=25%)"
